Molecular target: human CCR1 (Homo sapiens, UniProt P32246)
Sequence (P32246 1-355): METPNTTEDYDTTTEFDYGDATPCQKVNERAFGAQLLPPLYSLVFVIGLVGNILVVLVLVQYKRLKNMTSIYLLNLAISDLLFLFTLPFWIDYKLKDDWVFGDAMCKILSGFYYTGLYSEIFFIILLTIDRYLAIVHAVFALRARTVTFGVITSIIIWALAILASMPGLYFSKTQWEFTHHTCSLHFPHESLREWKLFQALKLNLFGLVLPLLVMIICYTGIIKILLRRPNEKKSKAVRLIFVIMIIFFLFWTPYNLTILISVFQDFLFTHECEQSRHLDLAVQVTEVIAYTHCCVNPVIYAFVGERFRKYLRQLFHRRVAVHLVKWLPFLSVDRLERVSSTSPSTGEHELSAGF
OBSERVATION TYPE: pKi
Give bare numbers, as −log10 of the molar value.

Solved cases below.
Cc1cc(O)cc(OCC(=O)N2C[C@H](C)N(Cc3ccc(F)cc3)C[C@H]2C)c1
8.30
C[C@@H]1CN(C(=O)COc2ccc(Cl)cc2C(=O)NCCN)[C@@H](C)CN1Cc1ccc(F)cc1
8.05
C[C@@H]1CN(C(=O)COc2ccc(Cl)cc2NCc2ccccc2)[C@@H](C)CN1Cc1ccc(F)cc1
7.38

Then there is this molecule:
Exam item: Please respond with reported pKi (system human CCR1 (Homo sapiens, UniProt P32246)) for "C[C@@H]1CN(C(=O)COc2ccc3ccc(=O)oc3c2)[C@@H](C)CN1Cc1ccc(F)cc1" .
Marked response: 7.74
